Origin of the recorded values: PubChem BioAssay (EPA / NIEHS)

test: BSK_hDFCGF_SRB: Viability Assessment in the BioMAP Diversity Plus: hDFCGF Assay (AID 2283061); conditions: primary human foreskin fibroblasts;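 also: cells exposed to compound for 24 h before the read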
Calls of active or inactive are those of the source. The calls were made as follows: active = hit-call score of the fitted dose curve at least 0.9, where 1 is the maximum; inactive = score below 0.9.
Labels: active, inactive

{"columns": ["compound", "group label"],
 "data": [
  ["COCCOC[C@H](CC1(C(=O)NC2CCC(C(=O)O)CC2)CCCC1)C(=O)Oc1ccc2c(c1)CCC2 (stereo not given in full)", "inactive"],
  ["c1cc(-c2ccncc2)ccn1", "inactive"],
  ["NS(=O)(=O)c1cc2c(cc1Cl)NCNS2(=O)=O", "inactive"],
  ["Clc1cc(Cl)c(Cl)cc1Cl", "inactive"],
  ["Cc1ccc(C(C)C)c(O)c1", "inactive"],
  ["CCOc1ccc2c(c1)C(C)=CC(C)(C)N2", "inactive"],
  ["C=CCc1ccc(O)c(OC)c1", "inactive"],
  ["C1CCC(SSC2CCCCC2)CC1", "active"],
  ["C=CCOC(=O)c1ccccc1C(=O)OCC=C", "inactive"],
  ["CCCCC(CC)COC(=O)CC(C(=O)OCC(CC)CCCC)S(=O)(=O)O (stereo not given)", "active"],
  ["Oc1ccc2ccccc2c1N=Nc1ccccc1", "inactive"],
  ["Nc1ccccc1N", "inactive"],
  ["CNCc1cc(F)ccc1Oc1ccc(Cl)c(Cl)c1", "inactive"],
  ["COC(=O)c1ccc(O)cc1", "inactive"],
  ["Cc1ccc2ncccc2c1", "inactive"],
  ["CC=Cc1ccc(O)c(OC)c1", "inactive"],
  ["CCCCN(CCCC)CCCC", "inactive"],
  ["COCCOCCOC", "inactive"],
  ["CN[C@H]1CC[C@@H](c2ccc(Cl)c(Cl)c2)c2ccc(S(N)(=O)=O)cc21", "active"],
  ["CNC(=O)[C@H]1O[C@@H](n2cnc3c(NCc4cc(Cl)ccc4OCc4cc(C)no4)ncnc32)[C@H](O)[C@@H]1N", "inactive"],
  ["CCCCCC(=O)O", "inactive"],
  ["COc1cc(S(=O)(=O)O)c(C)cc1N=Nc1c(O)ccc2cc(S(=O)(=O)O)ccc12", "inactive"],
  ["O=C(N[C@@H](Cc1ccccc1)[C@@H](O)C(=O)N1C[C@@H](O)[C@@H](O)C1)c1cc2cc(Cl)ccc2[nH]1", "inactive"],
  ["CCc1c(C(=O)NN2CCCCC2)nn(-c2ccc(Cl)cc2Cl)c1-c1ccc(Br)cc1", "active"],
  ["CCCCCCCCCCCCCCCCCC(=O)O", "inactive"],
  ["O=[N+]([O-])C(CO)(CO)CO", "inactive"],
  ["CCCCCCCCCCCCCO", "active"],
  ["Cc1cccc(C)c1O", "inactive"],
  ["CCCc1cc(=O)[nH]c(=S)[nH]1", "inactive"],
  ["CC(C)(C)c1cc(O)c(C(C)(C)C)cc1O", "inactive"],
  ["O=c1[nH]cc(F)c(=O)[nH]1", "inactive"],
  ["CCCCCCCC=O", "inactive"],
  ["COc1cc(-c2nc(NC(=O)c3cc4cc(C)cc(C)c4n3CC(=O)O)sc2CCC2CCCCC2)c(OC)cc1Cl", "active"],
  ["CC1(C)NC(=O)NC1=O", "inactive"],
  ["CCCCCCCCCCO", "inactive"],
  ["C[C@]12C=CC(=O)C=C1CC[C@@H]1[C@@H]2C(=O)C[C@@]2(C)[C@H]1CC[C@]2(O)C(=O)CO", "inactive"],
  ["CN1CCCC1=O", "inactive"],
  ["CC(=O)OC/C=C(\\C)CCC=C(C)C", "inactive"],
  ["CCOC(=O)CCC(=O)OCC", "inactive"],
  ["Nc1ccc(S(=O)(=O)c2ccc(N)cc2)cc1", "inactive"],
  ["Cc1ccc(Cl)cc1", "inactive"],
  ["Cc1cccc([N+](=O)[O-])c1C", "inactive"],
  ["CCCCCCCCCCC", "inactive"],
  ["CCCCCCCCCCCCCCCC", "inactive"],
  ["OC[C@@H](O)[C@@H](O)[C@H](O)[C@H](O)CO", "inactive"],
  ["Cc1ccc(N(C)C)cc1", "inactive"],
  ["Cc1cccc(Nc2cc(Cl)nc(SCC(=O)O)n2)c1C", "inactive"],
  ["CCCCc1ccc2c(n1)[C@@H](c1ccc(OC)cc1C[C@H](C)C(=O)O)[C@H](C(=O)O)[C@H]2c1ccc2c(c1)OCO2", "inactive"],
  ["CC(=O)Oc1ccccc1C(=O)O", "inactive"],
  ["Cc1ccccc1Cl", "inactive"],
  ["Cc1ccc(C)c(O)c1C", "inactive"],
  ["NCCO", "inactive"],
  ["Cc1cc(=O)[nH]c(=S)[nH]1", "inactive"],
  ["Oc1ccc2c(c1)OC[C@@H](N1CCC(O)(c3ccc(F)cc3)CC1)[C@H]2O", "inactive"],
  ["COc1ccc(S(=O)(=O)N2C(=O)[C@@](c3ccccc3OC)(N3C[C@H](O)C[C@H]3C(=O)N(C)C)c3cc(Cl)ccc32)c(OC)c1", "active"]
]}
